- Tested on: barnyardgrass (Echinochloa crusgalli, ECHCG)
- experiment-summary: Pre-emerge greenhouse herbicide test, phytotoxicity rating
- Assay type: in vivo
- run-conditions: Echinochloa crus-galli, pre-emergence, 336 h, Rate 500 g al/ha, 14 days after application, rating scale 0-100
- Protocol: A standard greenhouse herbicide activity screening system was used to evaluate the herbicidal efficacy and crop safety of these test compounds. […] At 14 days after application of the test materials, phytotoxicity ratings were recorded. […]
readout: pest or weed control at 500 g/ha (%)
Output spec: scalar in %, unitless text.

Nn1c(C(F)(F)F)cc(=O)n(-c2cc(Oc3ccc([N+](=O)[O-])cc3C(F)(F)F)c(Cl)cc2F)c1=O: 90

Exercise: Quick one: pest or weed control at 500 g/ha for Nn1c(C(F)(F)F)cc(=S)n(-c2cc(Oc3ccc(Cl)cn3)c(Cl)cc2F)c1=O ?
Solution: 80

Exercise: Quick one: pest or weed control at 500 g/ha for Nn1c(C(F)(F)F)cc(=O)n(-c2cc(Oc3ccc([N+](=O)[O-])cn3)c(Cl)cc2F)c1=O ?
Solution: 80
